# experimental_protocol: Covalent inhibition of human CES2A
readout_name: Ki (nM)
Give bare numbers, in nM.

Name the reported Ki value associated with the molecule CCN(C)C(=O)Oc1ccc(C(=O)N2CCC(Cc3ccccc3)CC2)cc1OC 0.065

* * *

# tested_system: Prothrombin (Homo sapiens)
# experimental_protocol: Inhibition of human Thrombin using Z-GGRAMC as substrate preincubated for 3 mins followed by substrate addition by fluorescence based assay
readout_name: IC50

Sample CCN(C)C(=O)Oc1ccc(C(=O)N2CCC(Cc3ccccc3)CC2)cc1OC — what was its IC50? > 10 µM

* * *

# experimental_protocol: Apparent permeability across apical to basal side in human Caco-2 cells at 25 uM incubated for 120 mins by UPLC-MS/MS analysis
# Format: ADME, cell-based
readout_name: Papp A→B at 2 h, 25 µM (×10⁻⁶ cm/s)
Numbers only, in ×10⁻⁶ cm/s.

Which measured Papp A→B at 2 h, 25 µM value corresponds to CCN(C)C(=O)Oc1ccc(C(=O)N2CCC(Cc3ccccc3)CC2)cc1OC ? 15.7
